system: corn borers; conditions: concentration 600 mg/kg
Outcome label depends on Corn borer Mortality (%) relative to 30%: at/above gives true (1), below gives false (0).

[[record]]
chemical_string = "C[C@@H]1N[C@H](C(=O)NN=Cc2ccc(Cl)cc2)Cc2c1[nH]c1ccccc21"
answer_label = "false (0)"

[[record]]
chemical_string = "C[C@@H]1N[C@H](C(=O)NN=Cc2ccc([N+](=O)[O-])cc2)Cc2c1[nH]c1ccccc21"
answer_label = "true (1)"


## Input Hello, I need to know if `COc1ccc(C=NNC(=O)[C@@H]2Cc3c([nH]c4ccccc34)[C@H](C)N2)cc1` has measured Corn borer Mortality (%) not below 30%. Thanks!
## Output false (0)

## Input And then `CC(=O)Oc1ccc2c(c1)[nH]c1c(C)nccc12` , what is it?
## Output false (0)

## Input Next up: `C[C@@H]1N[C@H](C(=O)NN=Cc2ccc[nH]2)Cc2c1[nH]c1ccccc21`
## Output true (1)

## Input Similarly, `C[C@@H]1N[C@H](C(=O)NN=Cc2ccc(Cl)cc2Cl)Cc2c1[nH]c1ccccc21` ?
## Output true (1)

## Input Try this compound next: `CCOC(=O)[C@@H]1Cc2c([nH]c3ccccc23)CN1`
## Output false (0)

## Input Further, for `Cc1nccc2c1[nH]c1cc(OC(=O)C(C)(C)C)ccc12` ?
## Output true (1)

---

test system: corn borers; details: concentration 600 mg/kg
Strictly below 40% in Corn borer Mortality (%): MET. Otherwise: NOT MET.

[[record]]
chemical_string = "CCOC(=O)[C@H]1Cc2c([nH]c3ccccc23)[C@@H](C)N1"
experimental_system = "corn borers"
answer_label = "NOT MET"

[[record]]
chemical_string = "Cc1nc(/C=C/C(=O)O)cc2c1[nH]c1ccccc12"
experimental_system = "corn borers"
answer_label = "MET"


## Input Item `C[C@@H]1N[C@H](C(=O)NN=CC2CCCCC2)Cc2c1[nH]c1ccccc21` : Corn borer Mortality (%) beneath 40%, strictly?
## Output NOT MET

## Input Next compound: `C[C@@H]1N[C@H](C(=O)NN=Cc2cccs2)Cc2c1[nH]c1ccccc21`
## Output MET

---

test system: Fusarium graminearumt; experiment: microbe, parasite or virus in culture; type: cell-based; conditions: 50 mg/kg
Value Kind: Bactericidal activity (%) Fusarium graminearumt

Observe how each entry below is paired with its result.
[[record]]
chemical_string = "C[C@@H]1N[C@H](C(=O)NN=Cc2ccc(C(C)(C)C)cc2)Cc2c1[nH]c1ccccc21"
measurement = "41.4%"

[[record]]
chemical_string = "C[C@@H]1N[C@H](C(=O)NNC(=O)c2ccncc2)Cc2c1[nH]c1ccccc21"
measurement = "53.8%"

[[record]]
chemical_string = "C[C@@H]1N[C@H](C(=O)NN=CC(C)(C)C)Cc2c1[nH]c1ccccc21"
measurement = "46.2%"


Here is another compound to look at.
## Input # Bactericidal activity (%) Fusarium graminearumt lookup, item `C[C@@H]1N[C@H](C(=O)NN=Cc2cccnc2)Cc2c1[nH]c1ccccc21`
## Output 62.1%

---

test system: Fusarium graminearumt; assay: microbe, parasite or virus in culture; assay type: cell-based; settings: 50 mg/kg
// Bactericidal activity (%) Fusarium graminearumt lookup, one value per entry
Just the number in %, nothing appended.

// worked examples, Bactericidal activity (%) Fusarium graminearumt included
[[record]]
molecule = "C[C@@H]1N[C@H](C(=O)NN=C2CCCCC2)Cc2c1[nH]c1ccccc21 [Ic-29]"
experimental_system = "Fusarium graminearumt"
measurement = 46.2

[[record]]
molecule = "C[C@@H]1N[C@H](C(=O)NNC(=O)C2CCCC2)Cc2c1[nH]c1ccccc21 [Id-7]"
experimental_system = "Fusarium graminearumt"
measurement = 15.4

[[record]]
molecule = "C[C@@H]1N[C@H](C(=O)NCCO)Cc2c1[nH]c1ccccc21 [Ib-18]"
experimental_system = "Fusarium graminearumt"
measurement = 28.6


## Input Which Bactericidal activity (%) Fusarium graminearumt is reported for this molecule? C[C@@H]1N[C@H](C(=O)NN=Cc2ccc3c(c2)OCCO3)Cc2c1[nH]c1ccccc21 [Ic-13]
## Output 30.8

## Input // query: COc1ccc(C=NNC(=O)[C@@H]2Cc3c([nH]c4ccccc34)[C@H](C)N2)cc1 [Ic-8]
## Output 65.5

## Input Further, for CCCCCCCC=NNC(=O)[C@@H]1Cc2c([nH]c3ccccc23)[C@H](C)N1 [Ic-24] ?
## Output 61.5

## Input Cool, now C[C@@H]1N[C@H](C(=O)NCC2CCCO2)Cc2c1[nH]c1ccccc21 (stereo partly drawn) [Ib-20]
## Output 24.1

## Input // repeat for C[C@@H]1N[C@H](C(=O)NN=Cc2ccc[nH]2)Cc2c1[nH]c1ccccc21 [Ic-19] and report
## Output 41.4

## Input Same question, C[C@@H]1N[C@H](C(=O)NN=Cc2ccccn2)Cc2c1[nH]c1ccccc21 [Ic-17] this time
## Output 20.7

---

system: corn borers; details: concentration 600 mg/kg
Value Kind: Corn borer Mortality (%)
Kindly answer with a numeric value in %, unit omitted.

Reference set (5 entries):
[[record]]
chemical_string = "O=C(O)/C=C/c1cc2c([nH]c3ccccc32)c(-c2cccs2)n1"
measurement = 5

[[record]]
chemical_string = "CCOC(=O)[C@@H]1Cc2c([nH]c3ccccc23)[C@H](CC)N1"
measurement = 25

[[record]]
chemical_string = "COc1ccc(C=NNC(=O)[C@@H]2Cc3c([nH]c4ccccc34)[C@H](C)N2)cc1OC"
measurement = 55

[[record]]
chemical_string = "C[C@@H]1N[C@H](C(=O)NNC(=O)C(C)(C)C)Cc2c1[nH]c1ccccc21"
measurement = 50

[[record]]
chemical_string = "C[C@@H]1N[C@H](C(=O)NN=C2CCCCC2)Cc2c1[nH]c1ccccc21"
measurement = 15


// next item, Corn borer Mortality (%) requested
## Input Would you kindly share the measured Corn borer Mortality (%) for `C[C@@H]1N[C@H](C(=O)NN=CC(C)(C)C)Cc2c1[nH]c1ccccc21` ?
## Output 30

---

system: Fusarium fujikuroi; experiment: Fungicidal (bactericidal) activity in vitro, PDA colony diameter; format: cell-based; conditions: 50 mg/kg
Quick list: Bactericidal activity (%) Fusarium fujikuroi per entry.
Record the value in %, omitting the unit from your answer.

[[record]]
chemical_string = "O=C(O)[C@@H]1Cc2c([nH]c3ccccc23)[C@H](c2cccnc2)N1"
experimental_system = "Fusarium fujikuroi"
units = "%"
measurement = 14.3


## Input Need Bactericidal activity (%) Fusarium fujikuroi of `C[C@@H]1N[C@H](C(=O)NN=Cc2cccnc2)Cc2c1[nH]c1ccccc21` , thanks.
## Output 50.0

## Input Here is the next compound: `C[C@@H]1N[C@H](C(=O)NNC(=O)C(C)(C)C)Cc2c1[nH]c1ccccc21`
## Output 29.4

## Input Another compound to look at: `C[C@@H]1N[C@H](C(=O)NN=Cc2ncc[nH]2)Cc2c1[nH]c1ccccc21`
## Output 28.6

## Input Continue with `C[C@@H]1N[C@H](C(=O)NN=Cc2ccc[nH]2)Cc2c1[nH]c1ccccc21`
## Output 14.3

---

inhibition at 100 µg/mL values by entry
system: tobacco mosaic virus (TMV); assay: Anti-TMV in vivo inactivation; set-up: species or system tobacco mosaic virus (host Nicotiana tabacum L.cv.Xanthi NN); settings: Tobacco mosaic virus; treatment dose 100 μg/mL; read-out: Relative inhibition rate (%) In vivo inactivation
Field format: number, assumed %, no unit text.

[[record]]
compound = "Cc1nc(C(=O)O)cc2c1[nH]c1ccccc12"
experimental_system = "tobacco mosaic virus (TMV)"
measurement = 0

[[record]]
compound = "C[C@@H]1N[C@H](C(=O)NNC(=O)c2cccc3nnsc23)Cc2c1[nH]c1ccccc21"
experimental_system = "tobacco mosaic virus (TMV)"
measurement = 16.2

[[record]]
compound = "C[C@@H]1N[C@H](C(=O)NCN(C)C)Cc2c1[nH]c1ccccc21"
experimental_system = "tobacco mosaic virus (TMV)"
measurement = 0

[[record]]
compound = "Cc1nccc2c1[nH]c1ccc([N+](=O)[O-])cc12"
experimental_system = "tobacco mosaic virus (TMV)"
measurement = 0

[[record]]
compound = "NC(=O)c1ncn([C@@H]2O[C@H](CO)[C@@H](O)[C@H]2O)n1 [Virazole, reference compound]"
experimental_system = "tobacco mosaic virus (TMV)"
measurement = 12.9


## Input Field: inhibition at 100 µg/mL (tobacco mosaic virus (TMV)). Entry: `CCCCNC(=O)[C@@H]1Cc2c([nH]c3ccccc23)[C@H](C)N1`
## Output 13.5

## Input Entry to check: CNCC(=O)N[C@@H](CO)C(=O)N[C@H]1[C@H](O)[C@@H](O)[C@H](n2ccc(N)nc2=O)O[C@@H]1C(N)=O [Ningnanmycin, reference compound]
## Output 38.4

## Input Proceed to `COc1ccc2c(c1)[nH]c1c(C)nccc12`
## Output 11.4

## Input Request: `CCOC(=O)[C@@H]1Cc2c([nH]c3ccccc23)[C@H](C)N1`
## Output 25.7

## Input Also `O=C(O)[C@@H]1Cc2c([nH]c3ccccc23)[C@H](c2ccccc2)N1` , if possible.
## Output 0

## Input One more compound: COc1ccc2c3c([nH]c2c1)C(C)NCC3 (centres unmarked) [Tetrahydroharmine]
## Output 26.4
